Tested on: Haemophilus influenzae
Test: Antimicrobial activity against LS2 Efflux knock-out Haemophilus influenzae
Format: functional
MIC values, listed per item
PARAMETER_MEASURED: MIC (µg/mL)

> print(dat)
                                   compound  parameter.measured  sign  assay.value
1  CCCCC/C(NC(C)CCCN(CC)CC)=C1\C(=O)C(CCSC)N(C(=O)CC(C)CC(C)(C)C)C1=O (configuration not stated)                 MIC     =            8
2  CCCCCCCCCN/C(C)=C1/C(=O)N2[C@@H](C(C)(C)C)OC[C@]2(C(=O)OC)C1=O                 MIC     >           32
3  CCOC(=O)[C@]12CO[C@H](C(C)(C)C)N1C(=O)/C(=C(\C)NCc1ccc(C)o1)C2=O                 MIC     >           32
4  CCCCCCCCCCCCC/C(NCCCNC(=O)COCC(=O)O)=C1\C(=O)CN(CCCCCC)C1=O                 MIC     >           64
5  CCCCCCC/C=C/C(=O)N1C(=O)/C(=C(\C)Nc2ccc(N3CCOCC3)cc2)C(=O)C1CC(C)C (configuration not stated)                 MIC     >           32
6  C/C(NC12CC3CC(CC(C3)C1)C2)=C1\C(=O)N2[C@H](C(C)(C)C)OC[C@@]2(C)C1=O (mixture of isomers)                 MIC     =           16
7  CCCCCCCCCCC/C(NCCCOC(C)C)=C1\C(=O)[C@@H]2CCCC(=O)N2C1=O                 MIC     =            4

====

Test system: Haemophilus influenzae
Assay: Antimicrobial activity against Haemophilus influenzae ATCC 31517 MMSA
Format: functional
PARAMETER_MEASURED: MIC

> print(dat)
                                   compound  assay.value
1  CCCCCCCCCCCCC/C(NCCCN)=C1\C(=O)CN(CCCCCC)C1=O     64 µg/mL
2  CCOC(=O)[C@]12CO[C@H](C(C)(C)C)N1C(=O)/C(=C(\C)NCc1ccc(C)o1)C2=O   > 32 µg/mL
3  CCOC(=O)[C@]12CO[C@H](C(C)(C)C)N1C(=O)/C(=C(/CC13CC4CC(CC(C4)C1)C3)NC(C)CCCN(CC)CC)C2=O (stereo partly drawn)   > 64 µg/mL
4  CCCCCCCCCCC/C(NCCCOC(C)C)=C1\C(=O)[C@@H]2CCCC(=O)N2C1=O   > 64 µg/mL
5  CCOC(=O)[C@]12CO[C@H](C(C)(C)C)N1C(=O)/C(=C(\C)NCCOc1ccccc1)C2=O   > 64 µg/mL
6  CCOC(=O)[C@]12CO[C@H](C(C)(C)C)N1C(=O)/C(=C(\C)NCCCN1CCOCC1)C2=O   > 32 µg/mL
7  CSCCC1C(=O)/C(=C(\CC23CC4CC(CC(C4)C2)C3)NCC(C)(C)CN(C)C)C(=O)N1C(C)=O (stereo not drawn)   > 32 µg/mL
8  COC(=O)[C@]12CO[C@H](C(C)(C)C)N1C(=O)/C(=C(/CCCOc1ccccc1)NCCCOC(C)C)C2=O   > 32 µg/mL
